biological target: D(4) dopamine receptor (Homo sapiens, UniProt P21917); test: In vitro displacement of [3H]spiperone from the recombinant human dopamine receptor D4 expressed in CHO cells; assay type: cell-based
Sequence (P21917 whole entry): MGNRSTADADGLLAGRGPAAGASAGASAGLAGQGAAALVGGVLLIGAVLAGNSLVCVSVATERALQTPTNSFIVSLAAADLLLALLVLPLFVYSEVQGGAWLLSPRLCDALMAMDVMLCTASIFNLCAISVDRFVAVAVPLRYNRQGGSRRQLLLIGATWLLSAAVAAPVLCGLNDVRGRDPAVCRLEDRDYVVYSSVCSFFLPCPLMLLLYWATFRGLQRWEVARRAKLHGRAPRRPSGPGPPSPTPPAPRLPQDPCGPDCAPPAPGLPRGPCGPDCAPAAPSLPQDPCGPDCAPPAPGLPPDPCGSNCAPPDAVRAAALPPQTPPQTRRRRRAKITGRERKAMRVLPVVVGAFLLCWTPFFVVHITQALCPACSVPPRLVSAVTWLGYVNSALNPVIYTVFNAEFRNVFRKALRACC
experimental_readout: Ki (nM)

Please review the following examples before continuing.
- molecule: "COc1ccc(Br)cc1-c1nc(CN2CCN(c3ccccc3)CC2)cs1"
  system_name: "D(4) dopamine receptor (Homo sapiens, UniProt P21917)"
  readout_units: "nM"
  recorded_number: 590
- molecule: "c1ccc(CN2CCN(Cc3csc(-c4ccccc4)n3)CC2)cc1"
  system_name: "D(4) dopamine receptor (Homo sapiens, UniProt P21917)"
  readout_units: "nM"
  recorded_number: 590
- molecule: "Oc1ccc(Br)cc1-c1nc(CN2CCN(c3ccccc3)CC2)co1"
  system_name: "D(4) dopamine receptor (Homo sapiens, UniProt P21917)"
  readout_units: "nM"
  recorded_number: 580
- molecule: "c1ccc(CN2CC[C@@H](CNCc3csc(-c4ccccc4)n3)C2)cc1 (stereo in doubt; 4q)"
  system_name: "D(4) dopamine receptor (Homo sapiens, UniProt P21917)"
  readout_units: "nM"
  recorded_number: 390
- molecule: "COc1ccc(Br)cc1-c1nc(CNC2CCN(Cc3ccccc3)CC2)cs1"
  system_name: "D(4) dopamine receptor (Homo sapiens, UniProt P21917)"
  readout_units: "nM"
  recorded_number: 400

[I] COc1c(-c2nc(CNC[C@@H]3CCN(Cc4ccccc4)C3)co2)cc(Br)c2ccccc12
[II] COc1ccc(Br)cc1-c1nc(CNC[C@@H]2CCN(Cc3ccccc3)C2)cs1
// pick min by Ki: I , II Lab log: write the label of the selected item as the result.
II
